Values from the domain aggregation screens of Martell et al. (2025)

# assay.protocol: soluble fraction after stress (log2 fold change); higher = more stays soluble; pooled small domains, quantitative proteomics
# setup.conditions: stress: pH 4
assay.metric: soluble fraction (log2)
Please reply with the number alone, leaving off any unit.

HMVTVNAFGKSGPEPAAMTKEALAKGADEVRVIVDSPTAAASVRDFLIGAGLRVQLQDDEGQLIVVGEKK ... 0.344
HMLHSEDATVVRQAIPLLERHVDAATVAVARRNLAQLEQFGRYPRRNQALGRISNPAENAYLRAER ... -0.0503
HMLSRNEWLVMEALWERPSTLMELVRQLGQEPPGWAKSTTATMVRRMEEKGLIRHEAGSKARVYHP ... -0.325

As a next step, examine the sequence that follows.
IN: Please look at this sequence and report its soluble fraction (log2): HMIYQEGMQVKYQGKEYVISEIQDYKTYKTIKLDDNEGYLNGFITGSEILSFRNESELDLEI
OUT: -0.785
